We begin with a simple list: items and their reported melting point.

The cases that follow already have their melting point on record.
O=C(Nc1ccc2nc(CN3CCCCC3)ccc2c1)c1ccc(-c2ccc(F)cc2F)nc1 [Example 69]    182 to 183 °C
Cc1ccc(C2CCN(C(=O)Nc3ccc4nc(CN5CCCCC5)ccc4c3)CC2)cc1 [Example 64]    204 to 205 °C (dec.)
COc1ccc(-c2ccc(C(=O)Nc3ccc4nc(CN5CCCCC5)ccc4c3)cc2)cc1 [Example 56]    192 to 194 °C

Sample Cc1ccc(-c2ccc(C(=O)Nc3ccc4nc(CN5CCCC5)ccc4c3)cn2)cc1 [Example 46] — what was its melting point?
207 to 209 °C

# repeat for O=C(Nc1ccc2cc(CN3CCCC3)ccc2c1)N1CCC(c2ccccc2)CC1 [Example 102]
193 to 195 °C

And for CC(C)N(Cc1ccc2cc(NC(=O)c3ccc(-c4ccc(Cl)cc4)nc3)ccc2n1)C(C)C [Example 138] ?
201 to 203 °C
